B1: tRNA (parent)
chain: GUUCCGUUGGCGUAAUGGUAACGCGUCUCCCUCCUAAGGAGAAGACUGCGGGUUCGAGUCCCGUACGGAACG

- Variants of: B1
- Assay Summary: yeast fitness relative to wild type (ratio to wild type); higher = fitter; tRNA-Arg(CCU), competitive growth, 37 C, YPD
This sample holds only a part of the variants without activity.
Reported Endpoint: yeast fitness

Exam item: // lookup yeast fitness for A15G C60U
Marked response: 0.786

Exam item: // lookup yeast fitness for C11U U13C C24A U47A
Marked response: ≤ 0.5

Exam item: // lookup yeast fitness for A14G C27U C46A
Marked response: 0.673

Exam item: // lookup yeast fitness for C24G A36C C55U
Marked response: ≤ 0.5

Exam item: // lookup yeast fitness for C4G G9C C27A A36G C46A C55U A65C
Marked response: ≤ 0.5

Exam item: // lookup yeast fitness for A15G A36G A70C
Marked response: 0.674

Exam item: // lookup yeast fitness for C46G C61G C62A
Marked response: ≤ 0.5

Exam item: // lookup yeast fitness for G12C C33G G44C A69C
Marked response: ≤ 0.5

Exam item: // lookup yeast fitness for U3G A43G
Marked response: 0.936

Exam item: // lookup yeast fitness for U7A C22G C30U U32C A37G A70G
Marked response: ≤ 0.5

Exam item: // lookup yeast fitness for U7A C31U A40U G67C
Marked response: ≤ 0.5
